As shown below, each of these binders has a reported pKd value.
- test target: T1, recombinant human activated Factor VII (FVIIa) (human, UniProt P08709 61-212; P08709 213-466, ten glutamate residues of the Gla domain may be gamma-carboxylated)
- T1 construct: chains tethered by a disulfide bond; also called Factor VIIa; rFVIIa
- T1 sequence 1: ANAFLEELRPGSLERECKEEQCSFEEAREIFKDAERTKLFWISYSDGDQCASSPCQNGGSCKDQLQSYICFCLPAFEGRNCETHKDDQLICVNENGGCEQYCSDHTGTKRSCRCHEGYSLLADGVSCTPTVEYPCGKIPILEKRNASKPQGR
- T1 sequence 2: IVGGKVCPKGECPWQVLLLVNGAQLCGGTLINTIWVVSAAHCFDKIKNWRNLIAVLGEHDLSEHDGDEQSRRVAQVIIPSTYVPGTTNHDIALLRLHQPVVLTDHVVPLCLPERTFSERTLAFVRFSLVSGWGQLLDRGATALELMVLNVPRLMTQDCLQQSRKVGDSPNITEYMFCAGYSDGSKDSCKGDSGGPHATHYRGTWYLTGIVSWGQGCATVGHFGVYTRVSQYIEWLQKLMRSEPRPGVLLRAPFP
- experiment summary: BLI (Fortebio)
Quick note: pKd values are minus log10 of concentrations in mol/L.

VH SEQ ID NO 514 / VL SEQ ID NO 358 (antibody, IgG4, V domains shown, humanized 11F2; IgG4 S228P/kappa) VH: QVQLQESGPGLVEPSDTLSLTCAVSGYSITSDSAWSWIRQPPGKKLEWIGYIQYSGSTNYNPSLKSRVTMSRDTSKNQFSLKLSSVTALDTAVYYCARSVNYYGNSFAVGYWGQGTLVTVSS VL: EIVLTQSPATLSLSPGERATLSCRASQGISDYLHWYQQKPGQAPRLLIKYTSQPATGIPARFSGSGSGTDFTLTISSLEPEDFAVYYCQNGHSFPLTFGQGTKLEIK: 9.06

Moving on to the next binder.
**Q:** Fill blank: measured pKd of the binder VH SEQ ID NO 314 / VL SEQ ID NO 350 (antibody, IgG4, V domains shown, humanized 11F2; IgG4 S228P/kappa) VH: QVQLQESGPGLVEPSDTLSLTCAVSGYSISSDSAWSWIRQPPGKGLEWIGYIQYSGSTNYNPSLKSRVTMSVDTSKNQFSLKLSSVTALDTAVYYCARSVNYYGNSFAVGPWGQGTLVTVSS VL: EIVLTQSPATLSLSPGERATLSCRASQGISDYLHWYQQKPGQAPRLLIKYTSQPATGIPARFSGSGSGTDFTLTISSLEPEDFAVYYCQNGHSFPLTFGAGTKLELK is ____.
**A:** 7.72
